# Test system: U251
# measurement-protocol: NCI 60 cell line screen (SRB), CNS Cancer
# Assay type: cell-based
# setup-conditions: PG=+50
reported-endpoint: Log10GI50 (log10M)

[[record]]
compound = "CC(=O)O[C@H]1C(=O)[C@@]2(C)[C@H]([C@H](OC(=O)c3ccccc3)[C@]3(O)C[C@H](OC(=O)[C@H](O)[C@@H](NC(=O)c4ccccc4)c4ccccc4)C(C)=C1C3(C)C)[C@]1(OC(C)=O)CO[C@@H]1C[C@@H]2O [Paclitaxel, paclitaxel, reference compound]"
reported_endpoint = "Log10GI50"
value_operator = "="
measured_number = "−11.29"

[[record]]
compound = "CC1=C(C=Cc2cccc(C=CC3=C(C)C4CCC(C)C5CCC6(C)OOC45C(O3)O6)c2)OC2OC3(C)CCC4C(C)CCC1C24OO3 (centres unmarked) [VII-h]"
reported_endpoint = "Log10GI50"
value_operator = "="
measured_number = "−7.26"

[[record]]
compound = "CC1=C(C=Cc2cccc(C=CC3=C(C)C4CCC(C)C5CCC6(C)OOC45C(O3)O6)c2)OC2OC3(C)CCC4C(C)CCC1C24OO3 (centres unmarked) [VII-g]"
reported_endpoint = "Log10GI50"
value_operator = "="
measured_number = "−6.86"

[[record]]
compound = "CC1=C(C=Cc2cccc(C=CC3=C(C)C4CCC(C)C5CCC6(C)OOC45C(O3)O6)c2)OC2OC3(C)CCC4C(C)CCC1C24OO3 (centres unmarked) [VII-f]"
reported_endpoint = "Log10GI50"
value_operator = "="
measured_number = "−6.03"

[[record]]
compound = "C[C@@H]1CC[C@H]2[C@@H](C)C(=O)O[C@@H]3O[C@]4(C)CC[C@@H]1[C@]32OO4"
reported_endpoint = "Log10GI50"
value_operator = ">"
measured_number = "−4.00"

